- experimental.protocol: qHTS assay for identifying genotoxic compounds that show differential cytotoxicity against isogenic chicken DT40 cell lines with known DNA damage response pathways - Rad54/Ku70 mutant cell line (AID 743015); also: nearly all actives have a fitted effect of over 60% in size
- run.parameters: DT40 Rad54/Ku70 mutant viability, CellTiter-Glo, 40 h; series mostly up to 66.8 µM
Records with an inconclusive call do not appear. Activity calls are given as the source filed them. Calls follow the shape of the dose curve; as a rule, active = well fitted cell-killing curve with a large enough effect in the repeat runs; inconclusive = weak or mixed curves; inactive = no such curve, though single readings can be large or run the other way.
I would appreciate it if you answered using one of these outcomes: Yes for active, No for inactive

CCS(=O)(=O)C(C)(C)S(=O)(=O)CC	No
N#CC(Cl)(Cl)Cl	No
O=S(=O)(O)C(F)(F)C(F)(F)C(F)(F)C(F)(F)C(F)(F)C(F)(F)F	No
CC1=NNC(=O)N(/N=C/c2cccnc2)C1	No
CCOC(=O)CP(=O)(OCC)OCC	No

Task item: Can you look up the reported call for `N#CCCC#N` for me?
Reply: No

Task item: Can you look up the reported call for CCOP(=S)(Oc1cnc(C(C)(C)C)nc1)OC(C)C (stereo not drawn) for me?
Reply: Yes

Task item: Can you look up the reported call for `C=C(C)CN(CC)c1c([N+](=O)[O-])cc(C(F)(F)F)cc1[N+](=O)[O-]` for me?
Reply: No

Task item: Can you look up the reported call for `CCCCP(CCCC)CCCC` for me?
Reply: No

Task item: Can you look up the reported call for `N#CCBr` for me?
Reply: No

Task item: Can you look up the reported call for `C1CCC(C2CCCCC2)CC1` for me?
Reply: Yes

Task item: Can you look up the reported call for OC(c1ccc(F)cc1)(c1cncnc1)c1ccccc1Cl (stereo not drawn) for me?
Reply: Yes

Task item: Can you look up the reported call for CC1CN1P(=O)(N1CC1C)N1CC1C (stereo not drawn) for me?
Reply: No

Task item: Can you look up the reported call for `CSc1ccc(C(=O)C(C)(C)N2CCOCC2)cc1` for me?
Reply: Yes

Task item: Can you look up the reported call for C(CCOCC1CO1)COCC1CO1 (stereo not drawn) for me?
Reply: Yes

Task item: Can you look up the reported call for CN1CCC(O)(c2ccc(F)cc2)C(C(=O)c2ccc(F)cc2)C1 (stereo not drawn) for me?
Reply: Yes

Task item: Can you look up the reported call for N#CC(O)c1ccccc1 (stereo not drawn) for me?
Reply: No

Task item: Can you look up the reported call for `O=C1c2ccccc2C(=O)c2ccccc21` for me?
Reply: No

Task item: Can you look up the reported call for `COc1ncc(F)c2nc(S(=O)(=O)Nc3c(F)cccc3F)nn12` for me?
Reply: No

Task item: Can you look up the reported call for `CCN(Cc1ccc(Cl)nc1)/C(=C/[N+](=O)[O-])NC` for me?
Reply: No

Task item: Can you look up the reported call for `Cc1cccc(C#N)c1` for me?
Reply: No

Task item: Can you look up the reported call for CCCSP(=O)(OCC)Oc1ccc(Br)cc1Cl (stereo not drawn) for me?
Reply: Yes

Task item: Can you look up the reported call for `CNCC(=O)c1ccc(O)c(O)c1` for me?
Reply: No

Task item: Can you look up the reported call for CN/C(=N\[N+](=O)[O-])NCC1CCOC1 (stereo not drawn) for me?
Reply: No

###

- study.system: Aryl hydrocarbon receptor (Homo sapiens)
- experimental.protocol: qHTS assay to identify small molecule that activate the aryl hydrocarbon receptor (AhR) signaling pathway (AID 743085); also: nearly all actives have a fitted effect of over 15% in size;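 as to activation: HG2L7.5c1 human HepG2 liver cells with stably integrated DRE-driven firefly reporter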
- run.parameters: HepG2 AhR-luc (HG2L7.5c1), luciferase, 24 h; series mostly up to 70.3 µM
Inconclusive results are not listed. The source made the active and inactive calls. Calls follow the shape of the dose curve; as a rule, active = well fitted activation curve with a large enough effect in the repeat runs; inconclusive = weak or mixed curves; inactive = no such curve, though single readings can be large or run the other way.
I would appreciate it if you answered using one of these outcomes: label 1 (active), label 0 (inactive)

Task item: Can you look up the reported call for `N#CC(Cl)(Cl)Cl` for me?
Reply: label 0

Task item: Can you look up the reported call for CCCSP(=S)(OCC)Oc1ccc(Cl)cc1Cl (stereo not drawn) for me?
Reply: label 1

Task item: Can you look up the reported call for `CNCC(=O)c1ccc(O)c(O)c1` for me?
Reply: label 0

Task item: Can you look up the reported call for C=CC1CC=CCC1 (stereo not drawn) for me?
Reply: label 0

Task item: Can you look up the reported call for CCC(Cl)[N+](=O)[O-] (stereo not drawn) for me?
Reply: label 0

Task item: Can you look up the reported call for `ClCC(Cl)(Cl)Cl` for me?
Reply: label 0

Task item: Can you look up the reported call for `CN(N=O)C(N)=O` for me?
Reply: label 0

Task item: Can you look up the reported call for `CNC(=O)N(C)c1nc2ccccc2s1` for me?
Reply: label 1

###

- experimental.protocol: qHTS assay for small molecule disruptors of the mitochondrial membrane potential - cell viability (AID 720634);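 also: human HepG2 liver cancer cells; nearly all actives have a fitted effect of over 20% in size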
- run.parameters: HepG2 viability, ATP luminescence (CellTiter-Glo), 1 h; series mostly up to 83.2 µM
Records with an inconclusive call do not appear. Activity calls are given as the source filed them. The call rests on the fitted dose curve.
I would appreciate it if you answered using one of these outcomes: 1.0 = active, 0.0 = inactive

CCC(C)(C)c1cc(-n2nc3ccccc3n2)c(O)c(C(C)(C)CC)c1	0.0

Task item: Can you look up the reported call for `N#Cc1c(Cl)cccc1Cl` for me?
Reply: 0.0

Task item: Can you look up the reported call for `CNCC(=O)c1ccc(O)c(O)c1` for me?
Reply: 0.0

Task item: Can you look up the reported call for CC(C)CC(N(C)C)C1(c2ccc(Cl)cc2)CCC1 (stereo unspecified) for me?
Reply: 0.0

Task item: Can you look up the reported call for `Cc1cc(C)c(C(=O)P(=O)(C(=O)c2c(C)cc(C)cc2C)c2ccccc2)c(C)c1` for me?
Reply: 0.0

Task item: Can you look up the reported call for `NC(=S)C(N)=S` for me?
Reply: 0.0

Task item: Can you look up the reported call for `CC1(C)CON(Cc2ccccc2Cl)C1=O` for me?
Reply: 0.0

Task item: Can you look up the reported call for `CCCCCCBr` for me?
Reply: 0.0

Task item: Can you look up the reported call for `COc1cc(OC)nc(NC(=O)NS(=O)(=O)c2ncccc2C(=O)N(C)C)n1` for me?
Reply: 0.0

###

- experimental.protocol: qHTS assay to identify small molecule antagonists of the sonic hedgehog signaling (Shh) pathway (AID 1259369); also: nearly all actives have a fitted effect of over 45% in size
- run.parameters: NIH/3T3 Gli1-Luc reporter, Shh antagonist, luminescence 24 h; series mostly up to 92.4 µM
Inconclusive results are not listed. Calls of active or inactive are those of the source. The call rests on the fitted dose curve.
I would appreciate it if you answered using one of these outcomes: label 1 (active), label 0 (inactive)

Study these solved cases before continuing.
CNC(=O)Oc1c(C(C)(C)C)cc(C)cc1C(C)(C)C	label 0
N#CC(O)c1ccccc1 (configuration not stated)	label 0
CC(C=O)Cc1ccc2c(c1)OCO2 (configuration not stated)	label 0
CCC1(c2ccccc2)C(=O)NC(=O)NC1=O	label 0
CC1CCCCC1NC(=O)Nc1ccccc1 (configuration not stated)	label 0

Task item: Can you look up the reported call for `ClC(Cl)(Cl)C(Cl)(Cl)Cl` for me?
Reply: label 0

Task item: Can you look up the reported call for `CN1C[C@@H](NS(=O)(=O)N(C)C)C[C@@H]2c3cccc4c3c(cn4C)C[C@H]21` for me?
Reply: label 0

Task item: Can you look up the reported call for `CC1=C(C(=O)Nc2ccccc2)S(=O)(=O)CCO1` for me?
Reply: label 1

Task item: Can you look up the reported call for `O=[N+]([O-])c1ccc2c3c(cccc13)CC2` for me?
Reply: label 1

Task item: Can you look up the reported call for `CC(=O)[C@H]1CC[C@H]2[C@@H]3CC[C@H]4C[C@H](O)CC[C@]4(C)[C@H]3C(=O)C[C@]12C` for me?
Reply: label 0

###

- study.system: Cytochrome P450 3A4 (Homo sapiens)
- experimental.protocol: Cytochrome P450 Family 3 Subfamily A Member 4 (CYP3A4) small molecule antagonists: luciferase reporter qHTS assay (AID 1671201); also: nearly all actives have a fitted effect of over 50% in size
- run.parameters: P450-Glo CYP3A4 enzyme, luciferin luminescence, 1 h; series mostly up to 115 µM
Inconclusive results are not listed. Active and inactive are the calls of the source. Calls follow the shape of the dose curve; as a rule, active = well fitted inhibition curve with a large enough effect in the repeat runs; inconclusive = weak or mixed curves; inactive = no such curve, though single readings can be large or run the other way.
I would appreciate it if you answered using one of these outcomes: active, inactive

C[C@]12CC[C@H]3[C@@H](CCC4=CC(=O)CC[C@@]43C)[C@@H]1CC[C@@H]2C(=O)O	inactive
CCOC(=O)C(c1c(O)c2ccccc2oc1=O)c1c(O)c2ccccc2oc1=O	inactive
CCOP(=S)(OCC)SCSP(=S)(OCC)OCC	active
CCCCc1c(C)nc(NCC)[nH]c1=O	inactive
CCCCOP(=O)(O)OCCCC	inactive

Task item: Can you look up the reported call for `ClC(Cl)C(Cl)Cl` for me?
Reply: inactive

Task item: Can you look up the reported call for `COC(=O)COc1ccc(Cl)cc1Cl` for me?
Reply: inactive

###

- study.system: Acetylcholinesterase (Homo sapiens) (UniProt P22303)
- Sequence (P22303 whole entry, looked up): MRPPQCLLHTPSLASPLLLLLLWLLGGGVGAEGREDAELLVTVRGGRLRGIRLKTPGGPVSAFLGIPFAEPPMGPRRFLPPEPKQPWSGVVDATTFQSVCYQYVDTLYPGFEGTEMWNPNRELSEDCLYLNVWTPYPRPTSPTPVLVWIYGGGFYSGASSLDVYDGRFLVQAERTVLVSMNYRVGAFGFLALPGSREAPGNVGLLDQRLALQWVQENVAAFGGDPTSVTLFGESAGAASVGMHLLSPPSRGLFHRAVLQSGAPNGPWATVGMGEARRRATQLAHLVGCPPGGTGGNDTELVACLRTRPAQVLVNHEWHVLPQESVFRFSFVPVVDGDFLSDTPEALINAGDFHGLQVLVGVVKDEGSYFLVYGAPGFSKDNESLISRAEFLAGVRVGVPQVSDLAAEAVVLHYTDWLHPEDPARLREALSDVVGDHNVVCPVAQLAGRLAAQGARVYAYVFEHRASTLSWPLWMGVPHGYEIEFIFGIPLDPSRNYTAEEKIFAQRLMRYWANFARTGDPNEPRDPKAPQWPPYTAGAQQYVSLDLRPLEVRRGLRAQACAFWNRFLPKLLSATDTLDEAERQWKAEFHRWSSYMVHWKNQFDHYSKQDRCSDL
- experimental.protocol: Acetylcholinesterase (AChE) small molecule antagonists: fluorescence cell-based qHTS assay (AID 1347398); also: nearly all actives have a fitted effect of over 50% in size
- run.parameters: SH-SY5Y cells; AChE activity; series mostly up to 115 µM
Records with an inconclusive call do not appear. Calls of active or inactive are those of the source. Calls come from the whole dose curve.
I would appreciate it if you answered using one of these outcomes: active, inactive

Task item: Can you look up the reported call for `COc1cccc(C(=O)NN(C(=O)c2cc(C)cc(C)c2)C(C)(C)C)c1C` for me?
Reply: inactive

Task item: Can you look up the reported call for COC(=O)C(C)Oc1ccc(Oc2ccc(Cl)cc2Cl)cc1 (stereo unspecified) for me?
Reply: inactive

Task item: Can you look up the reported call for `C[C@H]1CCC[C@H](O)CCCCCc2cc(O)cc(O)c2C(=O)O1` for me?
Reply: inactive
